# Test system: E28 (patient-derived glioblastoma stem cells of classical subtype)
# experimental_details: phenotypic distance (Euclidean, principal components) from DMSO controls (arbitrary units); higher = stronger morphological change
# measurement_setup: 1000 nM; exposure time: 72 h
Structures can show the parent of a compound that is named as a salt.
We begin with a simple list: items and their reported phenotypic distance.
Just the number, please, no unit attached.

compound	phenotypic distance
COc1cccc2c1C(=O)c1c(O)c3c(c(O)c1C2=O)C[C@@](O)(C(C)=O)C[C@@H]3O[C@H]1C[C@H](N)[C@H](O)[C@H](C)O1 [Daunorubicin hydrochloride]	3.13
Nc1ncnc2c1c(-c1ccc(Oc3ccccc3)cc1)cn2C1CCCC1	0.737
CCN1CCN(C(=O)Cc2ccc(Nc3ncc(F)c(Nc4ccc(C(=O)Nc5ccccc5Cl)cc4)n3)cc2)CC1	5.35

Considering NC(=O)c1ccccc1 [Benzamide] , its phenotypic distance with E28 was recorded as 1.28

Considering "CCCCCCNC(=O)n1cc(F)c(=O)[nH]c1=O" , its phenotypic distance with E28 was recorded as 1.21

Considering CC(C)(C)CC(C)(C)c1ccc(OCCOCC[N+](C)(C)Cc2ccccc2)cc1 [Benzethonium chloride] , its phenotypic distance with E28 was recorded as 0.382

Considering "CN1CCC(NC(=O)c2cc(-c3c(O)cc(O)cc3Oc3ccc([N+](=O)[O-])cc3)on2)CC1" , its phenotypic distance with E28 was recorded as 5.08

Considering "Cn1ncnc1[C@H]1c2n[nH]c(=O)c3cc(F)cc(c23)N[C@@H]1c1ccc(F)cc1" , its phenotypic distance with E28 was recorded as 3.37

====

We begin with a simple list: items and their reported surviving fraction.
# System: E31 (patient-derived glioblastoma stem cells of proneural subtype)
# experimental_details: surviving fraction (nuclei count normalised to DMSO); higher = more cells surviving (less toxic)
# measurement_setup: 333.333 nM; exposure time: 72 h
Structures can show the parent of a compound that is named as a salt.

Consider the following illustrative entries.
>>> df
                                   compound  reported_value
0  O=[N+]([O-])c1ccc2c(c1)S(=O)(=O)C=C2 [Stattic]           0.395
1  CCN(CC)CCCC(C)Nc1c2ccc(Cl)cc2nc2ccc(OC)cc12 (centres undefined) [Quinacrine dihydrochloride hydrate]           0.914
2  OCCN1C[C@H](O)[C@@H](O)[C@H](O)[C@H]1CO [Miglitol]            1.01
3  O=C(O)c1ccc(-c2c[nH]c3ncc(-c4ccccc4)cc23)cc1C1CCCC1           0.798

The compound listed as COC(=O)[C@@H]1[C@H]2C[C@H]3c4[nH]c5ccccc5c4CCN3C[C@@H]2CC[C@@H]1O [Yohimbine hydrochloride] shows surviving fraction equal to 0.951

The compound listed as COc1cc2nc(N3CCN(C(=O)c4ccco4)CC3)nc(N)c2cc1OC [Prazosin hydrochloride] shows surviving fraction equal to 1.04

The compound listed as COC(=O)Nc1nc2cc(C(=O)c3cccs3)ccc2[nH]1 [Nocodazole] shows surviving fraction equal to 0.0743

The compound listed as Nc1ncn([C@@H]2O[C@H](CO)[C@@H](O)[C@H]2O)c(=O)n1 [5-azacytidine] shows surviving fraction equal to 0.718

The compound listed as O=c1c2ccccc2[se]n1-c1ccccc1 [Ebselen] shows surviving fraction equal to 1.13

====

# Tested on: E13 (patient-derived glioblastoma stem cells of classical subtype)
# experimental_details: phenotypic distance (Euclidean, principal components) from DMSO controls (arbitrary units); higher = stronger morphological change
# measurement_setup: 333.3 nM; exposure time: 72 h
Where a name gives a salt, the structure may show the parent alone.
measurement_name: phenotypic distance
Just the number, please, no unit attached.

molecule	phenotypic distance
C[C@H]1O[C@@H](O[C@H]2[C@@H](O)C[C@H](O[C@H]3[C@@H](O)C[C@H](O[C@H]4CC[C@@]5(C)[C@H](CC[C@@H]6[C@@H]5C[C@@H](O)[C@]5(C)[C@@H](C7=CC(=O)OC7)CC[C@]65O)C4)O[C@@H]3C)O[C@@H]2C)C[C@H](O)[C@@H]1O	6.42
C#C[C@]1(O)CC[C@H]2[C@@H]3CCC4=CCCC[C@@H]4[C@H]3CC[C@@]21C	0.697
O=C1c2c(O)ccc(O)c2C(=O)c2c(NCCNCCO)ccc(NCCNCCO)c21	6.18
CCCCC(CC)CNC(=N)NC(=N)NCCCCCCNC(=N)NC(=N)NCC(CC)CCCC (stereo not drawn) [Alexidine dihydrochloride]	1.76

Considering "CN(c1nccc(=O)[nH]1)C1CCN(c2nc3ccccc3n2Cc2ccc(F)cc2)CC1" , its phenotypic distance with E13 was recorded as 0.597

Considering "COc1cc2ncnc(Nc3cccc(Br)c3)c2cc1OC" , its phenotypic distance with E13 was recorded as 3.33

Considering CCCCC1C(=O)N(c2ccccc2)N(c2ccc(O)cc2)C1=O (stereo not drawn) , its phenotypic distance with E13 was recorded as 1.34

Considering Clc1ccc(COC(Cn2ccnc2)c2ccc(Cl)cc2Cl)c(Cl)c1 (stereo not drawn) , its phenotypic distance with E13 was recorded as 1.05

====

# System: E28
# experimental_details: phenotypic distance (Euclidean, principal components) from DMSO controls (arbitrary units); higher = stronger morphological change
# measurement_setup: 111.1 nM; exposure time: 72 h
We begin with a simple list: items and their reported phenotypic distance.
Just the number, please, no unit attached.

Consider the following illustrative entries.
compound	target_or_test_system	phenotypic distance
CC(C)C[C@H](NC(=O)[C@H](Cc1ccccc1)C[C@@H](O)[C@H](Cc1ccccc1)NC(=O)OC(C)(C)C)C(=O)N[C@@H](Cc1ccccc1)C(N)=O	E28	0.482
C[C@@]12C(=O)OC(=O)[C@]1(C)[C@H]1CC[C@@H]2O1	E28	2.74
CC(=O)O[C@@]12CO[C@@H]1C[C@H](O)[C@@]1(C)C(=O)[C@H](O)C3=C(C)[C@@H](OC(=O)[C@H](O)[C@@H](NC(=O)OC(C)(C)C)c4ccccc4)C[C@@](O)([C@@H](OC(=O)c4ccccc4)[C@H]21)C3(C)C	E28	4

The compound listed as CC1CNc2c(cccc2S(=O)(=O)N[C@@H](CCCNC(=N)N)C(=O)N2CC[C@@H](C)C[C@@H]2C(=O)O)C1 (stereo partly specified) shows phenotypic distance equal to 0.794

The compound listed as COc1cc([C@@H]2c3cc4c(cc3[C@@H](O[C@@H]3O[C@@H]5CO[C@@H](c6cccs6)O[C@H]5[C@H](O)[C@H]3O)[C@H]3COC(=O)[C@H]23)OCO4)cc(OC)c1O [Teniposide] shows phenotypic distance equal to 3.17

The compound listed as "CC[C@@H]1C(=O)N(C)c2cnc(Nc3ccc(C(=O)N[C@H]4CC[C@H](N5CCN(CC6CC6)CC5)CC4)cc3OC)nc2N1C(C)C" shows phenotypic distance equal to 2.98

====

# System: FT3469 (normal neural stem cell line)
# experimental_details: surviving fraction (nuclei count normalised to DMSO); higher = more cells surviving (less toxic)
# measurement_setup: 111.1 nM; exposure time: 72 h
Where a name gives a salt, the structure may show the parent alone.
Label condition met when surviving fraction is at or above 0.9; otherwise label condition not met.

The following compounds have reported results that may help.
compound	target_or_test_system	class_name
CN1C(=O)OC(C)(C)C1=O [Trimethadione]	FT3469	condition met
O=C(Nc1ccc([N+](=O)[O-])cc1Cl)c1cc(Cl)ccc1O [Niclosamide]	FT3469	condition not met
O=C(/C=C/c1cccnc1)NCCCCC1CCN(C(=O)c2ccccc2)CC1 [Daporinad]	FT3469	condition met

Problem: Does surviving fraction meet or surpass 0.9 for CCCCC1C(=O)N(c2ccccc2)N(c2ccc(O)cc2)C1=O (stereo unspecified) [Oxyphenbutazone] ?
Result: condition met

Problem: Does surviving fraction meet or surpass 0.9 for CC[C@H]1CN2CCc3cc(OC)c(OC)cc3[C@@H]2C[C@@H]1C[C@H]1NCCc2cc(OC)c(OC)cc21 [Emetine dihydrochloride hydrate] ?
Result: condition not met

Problem: Does surviving fraction meet or surpass 0.9 for CNCCc1ccccn1 [Betahistine mesylate] ?
Result: condition met

Problem: Does surviving fraction meet or surpass 0.9 for N=c1ccn2c(n1)O[C@H]1[C@H](O)[C@@H](CO)O[C@H]12 [Ancitabine hydrochloride] ?
Result: condition not met

Problem: Does surviving fraction meet or surpass 0.9 for CCC(=O)OCC(=O)[C@@]1(OC(=O)CC)[C@H](C)C[C@H]2[C@H]3[C@H]([C@@H](O)C[C@@]21C)[C@@]1(C)C=CC(=O)C=C1C[C@H]3Cl [Alclometasone dipropionate] ?
Result: condition met

Problem: Does surviving fraction meet or surpass 0.9 for COC(=O)C1=C(C)NC(C)=C(C(=O)OCC(C)C)C1c1ccccc1[N+](=O)[O-] (stereo unspecified) [Nisoldipine] ?
Result: condition met

Problem: Does surviving fraction meet or surpass 0.9 for "CCN(CC)Cc1ccc(C(=O)N(CCc2ccccc2OC)[C@@H]2CCNC2)cc1" ?
Result: condition met

Problem: Does surviving fraction meet or surpass 0.9 for Clc1ccc(CSC(Cn2ccnc2)c2ccc(Cl)cc2Cl)cc1 (stereo unspecified) [Sulconazole nitrate] ?
Result: condition not met

Problem: Does surviving fraction meet or surpass 0.9 for "CC[n+]1c(/C=C/C=C2/N(C)c3ccccc3C2(C)C)sc2ccccc21" ?
Result: condition not met

Problem: Does surviving fraction meet or surpass 0.9 for Cc1c(-c2ccc(-c3ccccc3F)cc2)nc2ccc(F)cc2c1C(=O)O [Brequinar sodium salt hydrate] ?
Result: condition met

Problem: Does surviving fraction meet or surpass 0.9 for CC[N+](CC)(CC)CCOc1ccc(/C=C/c2ccccc2)cc1 [MG 624] ?
Result: condition met

Problem: Does surviving fraction meet or surpass 0.9 for CC(C)C[C@H](NC(=O)CNC(=O)c1cc(Cl)ccc1Cl)B1OC(=O)C(CC(=O)O)(CC(=O)O)O1 [MLN9708] ?
Result: condition not met
